TARGET_DESC: PDZRN4_1, Q6ZMN7
Sequence (Q6ZMN7 213-318): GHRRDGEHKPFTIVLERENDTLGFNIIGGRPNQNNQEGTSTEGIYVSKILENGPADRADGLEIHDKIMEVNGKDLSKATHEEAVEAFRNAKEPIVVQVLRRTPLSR
TEST: holdup assay
Set-up: key: below the threshold = too weak to quantify, mostly under pKd 3.1 to 4
REPORTED_CONDITIONS: plain residues with an end cap or a label only (N-terminal biotin on a linker: ado-ado)

# BINDER, pKd
data = [
    ("HLRARKSEWV [GJD4, Q96KN9]", "below the threshold"),
    ("DDPSTAETVL [ABCA7, Q8IZY2]", 4.66),
    ("EVNETDDTKM [KCNJ1, P48048]", "below the threshold"),
    ("PPYRHRNTVV [ERBB4, Q15303]", "below the threshold"),
    ("LSEFKAMDSI [CTNNA1, P35221]", "below the threshold"),
    ("DDENIRTSDV [PLEKHA2, Q9HB19]", "below the threshold"),
    ("TASPAKETSF [SLC2A7, Q6PXP3]", "below the threshold"),
    ("TACCHSETVV [TGFA, P01135]", 3.67),
]

Where do the numbers come from? From paper PMC9482650.
